- Test system: HS-Sch-2
- ASSAY REMARKS: % inhibition of CellTiter-Glo viability at highest tested concentration (72 h), relative to DMSO and benzethonium chloride controls; higher = more inhibition
MEASUREMENT NAME: % inhibition (%)
Use % as the unit, but write only the number.

q: Find the recorded % inhibition belonging to COc1ccc2c(OCc3nnc4ccc(-c5ccccc5)nn34)ccnc2c1 [AMG-208] (max concentration tested 2500 nM) and report it.
a: 7.53

q: Find the recorded % inhibition belonging to Cc1cc(C(C)Nc2ccccc2)c2nc(N3CCOCC3)cc(=O)n2c1 (stereo unspecified) [TGX-221] (max concentration tested 10000 nM) and report it.
a: 12.3

q: Find the recorded % inhibition belonging to CC1(C)CCC(c2ccc(Cl)cc2)=C(CN2CCN(c3ccc(C(=O)NS(=O)(=O)c4ccc(N[C@H](CCN5CCOCC5)CSc5ccccc5)c(S(=O)(=O)C(F)(F)F)c4)cc3)CC2)C1 [Navitoclax] (max concentration tested 10000 nM) and report it.
a: 32.7

q: Find the recorded % inhibition belonging to CCOC(=O)CCNc1cc(N2CCc3ccccc3CC2)nc(-c2ccccn2)n1 [GSK-J4] (max concentration tested 100000 nM) and report it.
a: 99

q: Find the recorded % inhibition belonging to Oc1ncnc2[nH]ncc12 [Allopurinol] (max concentration tested 10000 nM) and report it.
a: 8.43

q: Find the recorded % inhibition belonging to Nc1nc(OCc2cc(Br)cs2)c2[nH]cnc2n1 [Lomeguatrib] (max concentration tested 10000 nM) and report it.
a: -6.3

The reported numbers originate from the supplement of paper PMC5579334.
